Test system: Caenorhabditis elegans N2 infected with Nematocida parisii ERTm1
Assay: progeny production relative to DMSO uninfected control; higher = more progeny despite microsporidia infection (inhibition of infection with low host toxicity)
Details: infection time 6 days; 100 µM
// label = rule met if progeny production is not less than 10%, otherwise rule not met

- Cc1ccn2c(C(=O)NCc3ccccc3)c(C)nc2c1: rule met
- CCOCc1nc2c(N)nc3ccccc3c2n1CC(C)(C)O: rule met
- O=C(O)/C=C/C=C/c1cccc(Oc2cc(Cl)cc(Cl)c2)c1: rule met
- COc1c(NC(=O)[C@H]2CC[C@@H](COc3ccc([N+](=O)[O-])cc3)CC2)c(F)cc2c(=O)c(C(=O)O)cn(C3CC3)c12: rule not met
- CSC[C@H]1CN(Cc2c[nH]c3c(N)ncnc23)C[C@@H]1O: rule met
- O=C1c2cccc3cccc(c23)C(=O)N1CC1CO1 (configuration not stated): rule met
- O=C(O)CSc1cc(NS(=O)(=O)c2cccc3cccnc23)c2ccccc2c1O: rule met
- O=C1NC(=O)C(Br)=C1Br: rule met
- Cc1cccc(CC(=O)N[C@H]2CCOC2=O)c1: rule not met
- CC(=O)Nc1cc(NS(=O)(=O)c2ccc(Cl)cc2)cc2c(Cl)[nH]nc12: rule not met

---

Test system: Caenorhabditis elegans N2 infected with Nematocida parisii ERTm1
Experiment: progeny production relative to DMSO uninfected control; higher = more progeny despite microsporidia infection (inhibition of infection with low host toxicity)
Conditions: infection time 6 days; 40 µM
QUANTITY: progeny production (%)

* Cc1cc(NS(=O)(=O)c2ccc(-c3ccc(F)cc3F)cc2)no1 | 4.39
* C=C(C)[C@@H]1CC[C@]2(C(=O)O)CC[C@]3(C)[C@H](CC[C@@H]4[C@@]5(C)CC[C@H](O)C(C)(C)[C@@H]5CC[C@]43C)[C@@H]12 | 6.56
* CC(Cc1ccccc1)C(=O)Nc1ccc(Cl)cc1C(=O)O (stereo not drawn) | 7.65
* O=C(O)c1ccc(-n2nc(-c3ccccc3O)nc2-c2ccccc2O)cc1 | 4.83
* CCCCN1C[C@H](O)[C@@H](O)[C@H](O)[C@H]1CO | 4.97
* O=C(NCc1ccc2c3c(cccc13)C(=O)N2)c1cccs1 | 6.15
* CN(C(=O)C1(c2ccc(Cl)cc2)CCC1)c1ccccc1 | 2.68
* Cc1ccn2c(C(=O)NCc3ccccc3)c(C)nc2c1 | 9.26
